# TARGET_SYSTEM: UniProt Q9UBN7
# EXPERIMENTAL_CONTEXT: read-out: HDAC6 IC50
pIC50: −log10 of the molar value.
Lab note: compare pIC50 against 8. Equal or greater, write rule met. Smaller, write rule not met.

Query: Item Cc1cc(C)cc(Nc2ncc(C(=O)NO)cn2)c1 with pIC50 of 8 or above?
Response: rule met

Query: Hi team, for O=C(NO)c1cnc(Nc2ccccc2Cl)nc1 , is the recorded pIC50 at or above 8?
Response: rule not met

* * *

# TARGET_SYSTEM: UniProt:Q92769
# Sequence (Q92769 whole entry): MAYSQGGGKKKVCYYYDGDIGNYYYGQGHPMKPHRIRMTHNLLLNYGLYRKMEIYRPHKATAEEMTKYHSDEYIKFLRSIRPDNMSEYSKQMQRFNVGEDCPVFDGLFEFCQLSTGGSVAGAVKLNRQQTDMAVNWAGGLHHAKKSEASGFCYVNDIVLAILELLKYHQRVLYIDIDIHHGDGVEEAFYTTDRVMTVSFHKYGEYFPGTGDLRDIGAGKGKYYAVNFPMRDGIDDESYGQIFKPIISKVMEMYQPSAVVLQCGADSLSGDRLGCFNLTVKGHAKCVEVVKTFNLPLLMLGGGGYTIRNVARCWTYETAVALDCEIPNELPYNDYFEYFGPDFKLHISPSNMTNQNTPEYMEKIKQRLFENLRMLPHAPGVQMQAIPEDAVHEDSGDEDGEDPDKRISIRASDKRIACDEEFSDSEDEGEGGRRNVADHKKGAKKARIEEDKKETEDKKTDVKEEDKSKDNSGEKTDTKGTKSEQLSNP
# EXPERIMENTAL_PROTOCOL: HDAC enzyme assay, HDAC2
# EXPERIMENTAL_CONTEXT: ratio HDAC2/HDAC6
MEASUREMENT_LABEL: HDAC2 fold over HDAC6 IC50 (selectivity for HDAC6)

COMPOUND | MEAS_VALUE
O=C(NO)c1cnc(Nc2cc(F)cc(F)c2)nc1 [Compound 18] | 13.5x)
O=C(NO)c1cnc(Nc2cc(Cl)ccc2Cl)nc1 [Compound 12] | (30.2x)
O=C(NO)c1cnc(NC2(c3ccc(F)cc3)CC2)nc1 [Compound 81] | (30.2x)

* * *

# TARGET_SYSTEM: HDAC1 (Homo sapiens (Human), UniProt Q13547)
# Sequence (Q13547 whole entry): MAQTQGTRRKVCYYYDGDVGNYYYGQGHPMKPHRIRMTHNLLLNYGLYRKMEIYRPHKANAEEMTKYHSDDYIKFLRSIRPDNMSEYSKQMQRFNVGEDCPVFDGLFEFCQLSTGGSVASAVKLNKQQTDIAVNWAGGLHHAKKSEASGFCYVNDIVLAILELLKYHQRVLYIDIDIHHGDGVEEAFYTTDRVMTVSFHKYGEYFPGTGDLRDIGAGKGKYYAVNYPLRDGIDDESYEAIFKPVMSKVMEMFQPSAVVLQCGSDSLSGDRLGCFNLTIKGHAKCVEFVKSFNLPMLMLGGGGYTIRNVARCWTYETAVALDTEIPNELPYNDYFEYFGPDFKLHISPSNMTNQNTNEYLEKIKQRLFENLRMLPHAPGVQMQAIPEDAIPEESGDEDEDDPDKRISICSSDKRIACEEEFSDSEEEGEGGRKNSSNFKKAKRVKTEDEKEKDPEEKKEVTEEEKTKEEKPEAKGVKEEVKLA
# EXPERIMENTAL_PROTOCOL: HDAC enzyme assay, HDAC1
# EXPERIMENTAL_CONTEXT: ratio HDAC1/HDAC6
MEASUREMENT_LABEL: HDAC1 fold over HDAC6 IC50 (selectivity for HDAC6)

SMILES_STR | MEAS_VALUE
Cc1cccc(C)c1CNc1ncc(C(=O)NO)cn1 | (64.4x)
Cc1ccc(Nc2ncc(C(=O)NO)cn2)cc1 | (22x)
O=C(NO)c1cnc(NC(c2ccc(F)cc2)c2ccc(F)cc2)nc1 | (64.4x)
O=C(NO)c1cnc(NCc2ccc(F)cc2C(F)(F)F)nc1 | (86x)

Could you now look at the following molecule, please?
Query: Which HDAC1 fold over HDAC6 IC50 (selectivity for HDAC6) is reported for this molecule? COc1cc(Nc2ncc(C(=O)NO)cn2)cc(C(F)(F)F)c1
Response: (46x)

* * *

Listing of entries alongside the reported pIC50.
# TARGET_SYSTEM: HDAC1 (Homo sapiens (Human), UniProt Q13547)
# EXPERIMENTAL_PROTOCOL: HDAC enzyme assay, HDAC1
# EXPERIMENTAL_CONTEXT: read-out: HDAC1 IC50
Lab note — pIC50 values are minus log10 of concentrations in M.

Reference set, count: 5
COMPOUND | pIC50
O=C(NO)c1cnc(Nc2ccccc2Cl)nc1 [Compound 7] | 6.38
O=C(NO)c1cnc(Nc2cccc(-c3ccccc3)c2)nc1 [Compound 28] | 6.95
CC(Nc1ncc(C(=O)NO)cn1)c1ccncc1 (stereo not shown) [Compound 85] | 7.17
O=C(NO)c1cnc(Nc2cc(F)cc(F)c2)nc1 [Compound 18] | 6.87
O=C(NO)c1cnc(NCc2ccccc2-c2ccccc2)nc1 [Compound 55] | 6.34

Then this compound:
Query: Any idea what pIC50 was measured for O=C(NO)c1cnc(NCc2c(CO)cccc2CO)nc1 [Compound 51] ?
Response: 6.33

* * *

# TARGET_SYSTEM: HDAC6 (Homo sapiens (Human), UniProt Q9UBN7)
# Sequence (Q9UBN7 whole entry): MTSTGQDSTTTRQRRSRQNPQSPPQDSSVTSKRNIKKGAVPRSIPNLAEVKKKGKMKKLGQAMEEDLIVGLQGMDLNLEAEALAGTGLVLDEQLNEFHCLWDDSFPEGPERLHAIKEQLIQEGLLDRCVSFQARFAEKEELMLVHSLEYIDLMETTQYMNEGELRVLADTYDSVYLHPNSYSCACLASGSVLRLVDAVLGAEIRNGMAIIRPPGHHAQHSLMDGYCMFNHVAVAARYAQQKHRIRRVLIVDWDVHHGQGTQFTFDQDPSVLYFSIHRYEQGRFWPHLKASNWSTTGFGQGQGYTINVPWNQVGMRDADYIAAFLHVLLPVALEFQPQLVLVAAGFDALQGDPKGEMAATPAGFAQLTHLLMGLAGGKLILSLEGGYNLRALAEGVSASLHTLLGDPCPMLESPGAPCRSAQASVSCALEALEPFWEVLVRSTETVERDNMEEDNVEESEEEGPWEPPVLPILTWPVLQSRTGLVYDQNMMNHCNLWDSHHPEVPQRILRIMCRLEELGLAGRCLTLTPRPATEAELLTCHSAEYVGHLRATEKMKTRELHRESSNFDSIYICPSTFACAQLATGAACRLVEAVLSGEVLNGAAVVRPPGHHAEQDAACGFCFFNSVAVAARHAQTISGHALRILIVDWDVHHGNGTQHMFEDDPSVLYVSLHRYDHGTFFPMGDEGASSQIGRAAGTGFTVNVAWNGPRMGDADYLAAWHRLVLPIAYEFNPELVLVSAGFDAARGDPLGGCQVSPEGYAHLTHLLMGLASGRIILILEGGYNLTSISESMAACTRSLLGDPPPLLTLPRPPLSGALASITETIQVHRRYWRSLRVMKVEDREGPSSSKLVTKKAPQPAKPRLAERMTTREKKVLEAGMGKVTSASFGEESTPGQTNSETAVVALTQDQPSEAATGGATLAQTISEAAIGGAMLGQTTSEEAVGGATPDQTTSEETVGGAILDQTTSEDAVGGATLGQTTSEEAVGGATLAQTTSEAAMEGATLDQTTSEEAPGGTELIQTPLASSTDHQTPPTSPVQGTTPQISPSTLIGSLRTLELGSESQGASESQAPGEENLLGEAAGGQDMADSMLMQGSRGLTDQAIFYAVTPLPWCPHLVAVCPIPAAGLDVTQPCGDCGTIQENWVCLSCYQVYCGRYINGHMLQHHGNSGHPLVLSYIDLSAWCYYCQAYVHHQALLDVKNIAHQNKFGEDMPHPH
# EXPERIMENTAL_CONTEXT: read-out: HDAC6 IC50
Recorded log10 of IC50 for the following molecules
Log scale reminder: IC50 in nM, then log10 taken.

# annotated cases, reported log10 of IC50 shown
SMILES_STR | log10 of IC50
O=C(NO)c1cnc(NCc2cccs2)nc1 | 0.60
COc1ccc(Nc2ncc(C(=O)NO)cn2)cc1 | 1.18
O=C(NO)c1cnc(NC2(c3ccc(F)cc3Cl)CC2)nc1 | 0.48
Cc1ccc(Nc2ncc(C(=O)NO)cn2)cc1 | 0.95
O=C(NO)c1cnc(NC2(c3c(F)cccc3F)CC2)nc1 | 0.00

Query: Record request: log10 of IC50 value, item O=C(NO)c1cnc(Nc2ccc(Cl)c(Cl)c2)nc1
Response: 0.70

Query: Request the reported log10 of IC50 associated with CC(C)(Nc1ncc(C(=O)NO)cn1)c1cc(C(F)(F)F)cc(C(F)(F)F)c1
Response: 1.52

Query: Could you share which log10 of IC50 value was measured for COc1ccccc1C1(Nc2ncc(C(=O)NO)cn2)CC1 ?
Response: 0.48
